tested on: tubulin; test: Tubulin polymerization assay (Cytoskeleton, Inc. inhibitor screening protocol); assay type: biochemical; details: 3 μM, 37C, compared to DMSO control
READOUT KIND: % Tubulin Polymerization at 60 min

[[record]]
smiles_record = "Nc1ncc(C(=O)NCCCc2ccc(-c3ccccc3F)cc2)cn1"
readout_kind = "% Tubulin Polymerization at 60 min"
value_observed = "A (A is < 20%)"

[[record]]
smiles_record = "O=C(NCCCc1ccc(-c2ccccc2F)cc1)c1ccc2[nH]cnc2c1"
readout_kind = "% Tubulin Polymerization at 60 min"
value_observed = "A (A is < 20%)"

